The measurements presented in this section are drawn from the kinase profiling compilation of Christmann-Franck et al. (2016).

target: CDK8 (human) (UniProt P49336); experiment: KINOMEscan competition binding; conditions: compound 10.0 µM
Sequence (P49336 whole entry, looked up): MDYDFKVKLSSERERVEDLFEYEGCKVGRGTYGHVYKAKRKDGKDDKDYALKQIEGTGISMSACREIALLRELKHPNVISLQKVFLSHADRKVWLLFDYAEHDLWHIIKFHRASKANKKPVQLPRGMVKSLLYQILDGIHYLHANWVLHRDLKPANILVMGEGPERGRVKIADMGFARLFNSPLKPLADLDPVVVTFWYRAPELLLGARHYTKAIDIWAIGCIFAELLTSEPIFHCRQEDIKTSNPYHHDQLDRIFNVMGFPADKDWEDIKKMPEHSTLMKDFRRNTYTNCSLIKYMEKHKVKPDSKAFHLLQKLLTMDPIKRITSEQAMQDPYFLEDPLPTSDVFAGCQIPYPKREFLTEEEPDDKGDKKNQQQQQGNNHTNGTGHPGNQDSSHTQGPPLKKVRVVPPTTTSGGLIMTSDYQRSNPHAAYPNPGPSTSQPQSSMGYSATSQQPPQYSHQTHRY
MEASURED PROPERTY: kinase still bound, per cent of control (%)

MOLECULE: COc1cc(C(=O)NC2CCN(C)CC2)ccc1Nc1ncc2c(n1)N(C1CCCC1)CCC(=O)N2C(C)C
MEASURED PROPERTY: kinase still bound, per cent of control
UNIT LABEL: %
OBSERVED RESULT: 100
//
MOLECULE: O=C(NOC[C@H](O)CO)c1ccc(F)c(F)c1Nc1ccc(I)cc1F
MEASURED PROPERTY: kinase still bound, per cent of control
UNIT LABEL: %
OBSERVED RESULT: 100
//
MOLECULE: Cc1ccc2nc(NCCN)c3ncc(C)n3c2c1
MEASURED PROPERTY: kinase still bound, per cent of control
UNIT LABEL: %
OBSERVED RESULT: 100
//
MOLECULE: COc1cc(N2CCN(C)CC2)ccc1Nc1nc(N)c(C(=O)c2c(Cl)cccc2Cl)s1
MEASURED PROPERTY: kinase still bound, per cent of control
UNIT LABEL: %
OBSERVED RESULT: 100
//
MOLECULE: C=CC(=O)Nc1cccc(Nc2nc(N[C@H]3CC[C@H](N(C)C)CC3)nc3c2ncn3C(C)C)c1
MEASURED PROPERTY: kinase still bound, per cent of control
UNIT LABEL: %
OBSERVED RESULT: 100
//
MOLECULE: CCN1CCN(Cc2ccc(Nc3ncc4c(n3)N(C)c3ccccc3C(=O)N4C)cc2C(F)(F)F)CC1
MEASURED PROPERTY: kinase still bound, per cent of control
UNIT LABEL: %
OBSERVED RESULT: 94
//
MOLECULE: C=CC(=O)Nc1cccc(Oc2nc(Nc3ccc(N4CCN(C)CC4)cc3OC)ncc2Cl)c1
MEASURED PROPERTY: kinase still bound, per cent of control
UNIT LABEL: %
OBSERVED RESULT: 100
//
MOLECULE: Cn1c(=O)n(-c2ccc(C(C)(C)C#N)cc2)c2c3cc(-c4cnc5ccccc5c4)ccc3ncc21
MEASURED PROPERTY: kinase still bound, per cent of control
UNIT LABEL: %
OBSERVED RESULT: 100
//
MOLECULE: O=C1Nc2ccc(I)cc2/C1=C/c1cc(Br)c(O)c(Br)c1
MEASURED PROPERTY: kinase still bound, per cent of control
UNIT LABEL: %
OBSERVED RESULT: 62
//
MOLECULE: O=C(O)c1ccc(Nc2ncc3c(n2)-c2ccc(Cl)cc2C(c2c(F)cccc2F)=NC3)cc1
MEASURED PROPERTY: kinase still bound, per cent of control
UNIT LABEL: %
OBSERVED RESULT: 100
//
MOLECULE: CCC(=O)N1CCN(c2ccc(-n3c(=O)ccc4cnc5ccc(-c6cnc7ccccc7c6)cc5c43)cc2C(F)(F)F)CC1
MEASURED PROPERTY: kinase still bound, per cent of control
UNIT LABEL: %
OBSERVED RESULT: 4.6
//
MOLECULE: OCCCNc1cc(-c2ccnc(Nc3cccc(Cl)c3)n2)ccn1
MEASURED PROPERTY: kinase still bound, per cent of control
UNIT LABEL: %
OBSERVED RESULT: 100
//
MOLECULE: CC[C@@H]1C(=O)N(C)c2cnc(Nc3ccc(C(=O)NC4CCN(C)CC4)cc3OC)nc2N1C1CCCC1
MEASURED PROPERTY: kinase still bound, per cent of control
UNIT LABEL: %
OBSERVED RESULT: 100
//
MOLECULE: Cc1ccc(NC(=O)c2cccc(C(C)(C)C#N)c2)cc1Nc1ccc2ncn(C)c(=O)c2c1
MEASURED PROPERTY: kinase still bound, per cent of control
UNIT LABEL: %
OBSERVED RESULT: 22
//
MOLECULE: COc1cc(C(=O)NC2CCN(C)CC2)ccc1Nc1ncc2c(n1)N(C1CCCC1)C(C)CC(=O)N2C (stereo not given)
MEASURED PROPERTY: kinase still bound, per cent of control
UNIT LABEL: %
OBSERVED RESULT: 100
//
MOLECULE: C=CC(=O)Nc1cc(NC(=O)c2ccc(C)c(NC(=O)c3ccno3)c2)cc(C(F)(F)F)c1
MEASURED PROPERTY: kinase still bound, per cent of control
UNIT LABEL: %
OBSERVED RESULT: 100
//
MOLECULE: C[C@@H](Oc1cc(-n2cnc3ccc(CN4CCN(C)CC4)cc32)sc1C(N)=O)c1ccccc1C(F)(F)F
MEASURED PROPERTY: kinase still bound, per cent of control
UNIT LABEL: %
OBSERVED RESULT: 95
//
MOLECULE: CCOc1cc2ncc(C#N)c(Nc3ccc(OCc4ccccn4)c(Cl)c3)c2cc1NC(=O)/C=C/CN(C)C
MEASURED PROPERTY: kinase still bound, per cent of control
UNIT LABEL: %
OBSERVED RESULT: 100
//
MOLECULE: Cc1ccc(C(=O)Nc2cccc(C(F)(F)F)c2)cc1Nc1cncc(C(N)=O)c1
MEASURED PROPERTY: kinase still bound, per cent of control
UNIT LABEL: %
OBSERVED RESULT: 100
//
MOLECULE: O=C(NC1CC1)c1cccc(-c2ccc3c(NC(=O)C4CC4)n[nH]c3c2)c1
MEASURED PROPERTY: kinase still bound, per cent of control
UNIT LABEL: %
OBSERVED RESULT: 76

----------
Consider the following molecules and their measured kinase still bound, per cent of control readings.
test system: ABL1 (human), P00519 [M351T]; test: KINOMEscan competition binding; conditions: compound 10.0 µM

SAMPLE SMILES: O=C(Nc1cccc(Nc2ncc(Br)c(NCCc3cnc[nH]3)n2)c1)N1CCCC1
UNIT LABEL: %
kinase still bound, per cent of control: 0.5

SAMPLE SMILES: COc1cc2c(Nc3ccc(NC(=O)c4ccccc4)cc3)ncnc2cc1OCCCN1CCOCC1
UNIT LABEL: %
kinase still bound, per cent of control: 32

SAMPLE SMILES: Cc1ccc(NC(=O)c2cccc(C(C)(C)C#N)c2)cc1Nc1ccc2ncn(C)c(=O)c2c1
UNIT LABEL: %
kinase still bound, per cent of control: 3.3

SAMPLE SMILES: CCOc1cc(N2CCC(O)CC2)ccc1Nc1ncc2c(n1)N(C)c1ccccc1C(=O)N2C
UNIT LABEL: %
kinase still bound, per cent of control: 100

SAMPLE SMILES: C=CC(=O)Nc1ccc(CN(C(=O)Nc2c(Cl)c(OC)cc(OC)c2Cl)c2cc(Nc3ccc(N4CCN(C)CC4)cc3)ncn2)cc1
UNIT LABEL: %
kinase still bound, per cent of control: 16

SAMPLE SMILES: Cc1cn(-c2cc(C(=O)Nc3ccc(C)c(NC(=O)c4ccno4)c3)cc(C(F)(F)F)c2)cn1
UNIT LABEL: %
kinase still bound, per cent of control: 11

SAMPLE SMILES: N#CCNC(=O)c1ccc(-c2ccnc(Nc3ccc(N4CCOCC4)cc3)n2)cc1
UNIT LABEL: %
kinase still bound, per cent of control: 66

SAMPLE SMILES: CCN1CCN(Cc2ccc(NC(=O)c3ccc(C)c(/C=C/c4cnc5[nH]ccc5c4OC)c3)cc2C(F)(F)F)CC1
UNIT LABEL: %
kinase still bound, per cent of control: 2.2

SAMPLE SMILES: COc1cc(C(=O)NC2CCN(C)CC2)ccc1Nc1ncc2c(n1)N(C1CCCC1)CCC(=O)N2C(C)C
UNIT LABEL: %
kinase still bound, per cent of control: 100

----------
Consider the following compounds and their measured kinase still bound, per cent of control readings.
target: SBK1 (human); assay: KINOMEscan competition binding; settings: compound 10.0 µM
MEASURED PROPERTY: kinase still bound, per cent of control (%)

SAMPLE SMILES: O=C(O)c1ccc(Nc2ncc3c(n2)-c2ccc(Cl)cc2C(c2c(F)cccc2F)=NC3)cc1
MEASURED PROPERTY: kinase still bound, per cent of control
OBSERVED RESULT: 100
//
SAMPLE SMILES: C=CC(=O)Nc1cc(NC(=O)c2ccc(C)c(NC(=O)c3ccno3)c2)cc(C(F)(F)F)c1
MEASURED PROPERTY: kinase still bound, per cent of control
OBSERVED RESULT: 100
//
SAMPLE SMILES: Cc1ccc2nc(NCCN)c3ncc(C)n3c2c1
MEASURED PROPERTY: kinase still bound, per cent of control
OBSERVED RESULT: 100
//
SAMPLE SMILES: COc1cc(C(=O)NC2CCN(C)CC2)ccc1Nc1ncc2c(n1)N(C1CCCC1)CCC(=O)N2C(C)C
MEASURED PROPERTY: kinase still bound, per cent of control
OBSERVED RESULT: 100
//
SAMPLE SMILES: CCCS(=O)(=O)Nc1ccc(F)c(C(=O)c2c[nH]c3ncc(-c4ccc(Cl)cc4)cc23)c1F
MEASURED PROPERTY: kinase still bound, per cent of control
OBSERVED RESULT: 92
